Entries and their measured CC50 follow.
Tested on: OVCAR-3
assay.procedure: NCI human tumor cell panel
test.parameters: OVCAR-3, read-out: Log10 LC50 (converted)
Please respond with the number in µM and leave the unit unwritten.

Worked set:
- compound.smiles: "OCc1ccc(-c2ccc(-c3ccc[se]3)s2)[se]1"
  uom: "µM"
  CC50: 40.7
- compound.smiles: "OCc1ccc(-c2ccc(-c3ccc(CO)[se]3)s2)s1"
  uom: "µM"
  CC50: 50.1
- compound.smiles: "O=Cc1ccc(-c2ccc(-c3ccc[se]3)[se]2)[se]1"
  uom: "µM"
  CC50: 30.9
- compound.smiles: "OCc1ccc(-c2ccc(-c3ccc[se]3)[se]2)[se]1"
  uom: "µM"
  CC50: 6.92
- compound.smiles: "O=Cc1ccc(-c2ccc(-c3ccc(C=O)s3)[se]2)s1"
  uom: "µM"
  CC50: 4.07

Now turn to the next molecule.
Q: Requested field: CC50. Item: "OCc1ccc(-c2ccc(-c3ccc(CO)[se]3)[se]2)[se]1"
Result: 5.37

* * *

Test system: DU-145
assay.procedure: NCI human tumor cell panel
Type: cell-based
test.parameters: DU-145, read-out: Log10 LC50 (converted)
Entries and their measured CC50 follow.

Worked set:
- compound.smiles: "O=Cc1ccc(-c2ccc(-c3cccs3)[se]2)s1"
  property: "CC50"
  recorded.result: "> 100 µM"
- compound.smiles: "O=Cc1ccc(-c2ccc(-c3ccc(C=O)s3)[se]2)s1"
  property: "CC50"
  recorded.result: "> 100 µM"

Q: Requested field: CC50. Item: "O=Cc1ccc(-c2ccc(-c3ccc(C=O)[se]3)s2)s1"
Result: > 100 µM

Q: Requested field: CC50. Item: "OCc1ccc(-c2ccc(-c3ccc(CO)[se]3)s2)[se]1"
Result: > 100 µM

Q: Requested field: CC50. Item: "O=Cc1ccc(-c2ccc(-c3ccc[se]3)[se]2)[se]1"
Result: 51.3 µM

Q: Requested field: CC50. Item: "OCc1ccc(-c2ccc(-c3cccs3)[se]2)s1"
Result: > 100 µM

* * *

System: PC-3
assay.procedure: NCI human tumor cell panel
Format: cell-based
test.parameters: PC-3, read-out: Log10 LC50 (converted)
property: CC50

- compound.smiles: "OCc1ccc(-c2ccc(-c3ccc(CO)[se]3)s2)[se]1"
  CC50: "> 100 µM"
- compound.smiles: "OCc1ccc(-c2ccc(-c3ccc(CO)[se]3)[se]2)[se]1"
  CC50: "35.5 µM"
- compound.smiles: "O=Cc1ccc(-c2ccc(-c3ccc(C=O)[se]3)s2)[se]1"
  CC50: "> 100 µM"
- compound.smiles: "OCc1ccc(-c2ccc(-c3ccc[se]3)[se]2)[se]1"
  CC50: "36.3 µM"
- compound.smiles: "O=Cc1ccc(-c2ccc(-c3ccc(C=O)[se]3)s2)s1"
  CC50: "> 100 µM"

Q: Requested field: CC50. Item: "OCc1ccc(-c2ccc(-c3cccs3)[se]2)s1"
Result: > 100 µM

Q: Requested field: CC50. Item: "O=Cc1ccc(-c2ccc(-c3cccs3)[se]2)s1"
Result: > 100 µM

* * *

System: DU-145
assay.procedure: NCI human tumor cell panel
Format: cell-based
test.parameters: DU-145, read-out: Log10 LC50 (converted)
property: CC50

Worked set:
- compound.smiles: "OCc1ccc(-c2ccc(-c3ccc[se]3)s2)[se]1"
  recorded.result: "> 100 µM"
- compound.smiles: "OCc1ccc(-c2ccc(-c3ccc(CO)[se]3)s2)s1"
  recorded.result: "> 100 µM"
- compound.smiles: "O=Cc1ccc(-c2ccc(-c3ccc(C=O)[se]3)[se]2)[se]1"
  recorded.result: "> 100 µM"
- compound.smiles: "O=Cc1ccc(-c2ccc(-c3ccc(C=O)[se]3)s2)[se]1"
  recorded.result: "> 100 µM"
- compound.smiles: "OCc1ccc(-c2ccc(-c3ccc(CO)s3)[se]2)s1"
  recorded.result: "> 100 µM"

Q: Which CC50 is reported with DU-145 for this entry: "OCc1ccc(-c2ccc(-c3ccc(CO)[se]3)[se]2)[se]1" ?
Result: 46.8 µM

Q: Which CC50 is reported with DU-145 for this entry: "OCc1ccc(-c2ccc(-c3ccc[se]3)[se]2)[se]1" ?
Result: 46.8 µM
